Recorded values, source ChEMBL document CHEMBL1144695.

Test system: HeLa
Assay: Cytotoxicity against human HeLa cells after 72 hrs by MTS assay
Assay type: functional, cell-based
measured.attribute: log10(IC50) (log10 of the value in µM)
log10 IC50, µM

# get_value(readout='log10(IC50)', item= O=C(O)CN(CCN(CC(=O)O)CC(=O)O)CCN(CC(=O)O)CC(=O)O ) 2.42

* * *

Tested on: HeLa
Assay: Cytotoxicity against human HeLa cells after 72 hrs by MTS assay
Assay type: functional, cell-based
measured.attribute: pIC50
Reminder that pIC50 is minus the log10 of a molar concentration.

Sample answers from the record:
>>> recorded_number("O=C(O)CN1CCN(CCN(CC(=O)O)Cc2ccccc2)CCN(CC(=O)O)CC1")
5.36
>>> recorded_number("O=C(O)CNC(Cc1ccc([N+](=O)[O-])cc1)CN1CCN(CC(=O)O)CCN(CC(=O)O)CC1 (stereo unspecified)")
5.15
>>> recorded_number("O=C(O)CN1CCN(CCN(CC(=O)O)Cc2ccc([N+](=O)[O-])cc2)CCN(CC(=O)O)CC1")
5.08

--- query ---
Reported pIC50, compound O=C(O)CNCCN1CCN(CC(=O)O)CCN(CC(=O)O)CC1 : ____ 5.24
